Test system: MOLT-3 cells
Assay: Cell growth inhibition, [3H]thymidine proliferation assay
Format: cell-based
Settings: Homo sapiens, 72 hours incubation, 38C2 or PGA at 1 μM where stated
observationType: IC50

INSERT INTO measurements (compoundsmiles, datavalue) VALUES
  ('COc1cccc2c1C(=O)c1c(O)c3c(c(O)c1C2=O)C[C@@](O)(C(=O)CO)C[C@@H]3O[C@H]1C[C@H](N)[C@H](O)[C@H](C)O1', '3 nM');
